Test system: GCaMP5-expressing T. gondii
Construct: whole extracellular parasites expressing GCaMP5 Ca2+ sensor
Set-up: species or system GCaMP5-expressing Toxoplasma gondii, extracellular; GCaMP5 fluorescence (cytosolic Ca2+) after 100 uM zaprinast in compound-pretreated extracellular parasites, background-subtracted, relative to zaprinast alone
Conditions: 100 uM zaprinast stimulation; 10 min pretreatment; mean of two replicates; 0.23 h
fold change in fluorescence relative to zaprinast alone values, listed per item
Answer field: number only, no words.

Example results:
> print(dat)
                                   compound     val
1  COc1cc2ncn(-c3cc(OCc4cccs4)c(C(N)=O)s3)c2cc1OC [GSK312948A]   1.205
2  Fc1cccc(COc2ccc(Nc3ncnc4sc(-c5ccco5)cc34)cc2Cl)c1 [GSK969786A]  0.8987
3  COc1cccc(C2=C(Nc3cc(Cl)c(O)c(Cl)c3)C(=O)NC2=O)c1    1.06

Input: Query for GCaMP5-expressing T. gondii: what fold change in fluorescence relative to zaprinast alone does the record show for "COc1ccc2cc(-c3c(-c4ccncc4)nc(-c4ccc(S(C)(=O)=O)cc4C)n3C)ccc2c1" ?
Output: 0.9532

Input: Field entry: COC(=O)Nc1nc2ccc(Oc3ccc(NC(=O)Nc4cc(C(F)(F)F)ccc4F)cc3)cc2n1C [GW692089A]
Output: 1.505

Input: Then CS(=O)(=O)Nc1ccc(-c2ccnc3[nH]ccc23)cc1 [GSK993273A] ?
Output: 1.181

Input: And what about the compound CS(=O)(=O)CCNCc1nc(-c2ccc3ncnc(Nc4ccc(F)c(Cl)c4)c3c2)cs1 [GW461104B] ?
Output: 0.6524

Input: Same for CN(c1ccc(NC(=O)Nc2ccc(OC(F)(F)F)cc2)cc1)c1ccnc(Nc2cccc(S(N)(=O)=O)c2)n1 [GW806742X]
Output: 0.4394
